- Test system: HLA-A*69:01
- Assay summary: IEDB peptide-MHC binding, purified MHC/competitive/fluorescence; filed as Kd, often an IC50 or EC50 that approximates it; bounds were set here for any values at or beyond the usual limits of such assays
- Condition label: source organism: Homo sapiens
Metric name: Kd

SVDSDHLGY    ≥ 20 µM

Now turn to the next sequence.
Bench note: what Kd did GPSPSHKSV show?
≥ 20 µM

----------
- Test system: HLA-A*03:01
- Assay summary: IEDB peptide-MHC binding, purified MHC/direct/fluorescence; filed as Kd, often an IC50 or EC50 that approximates it; bounds were set here for any values at or beyond the usual limits of such assays
- Condition label: source organism: Vibrio parahaemolyticus
pKd: −log10 of the molar value.
Metric name: pKd

Bench note: what pKd did EIPGSPGSY show?
≤ 4.70

----------
- Test system: HLA-B*35:01
- Assay summary: IEDB peptide-MHC binding, purified MHC/competitive/radioactivity; filed as Kd, often an IC50 or EC50 that approximates it; bounds were set here for any values at or beyond the usual limits of such assays
- Condition label: source organism: Dengue virus 2 Jamaica/1409/1983
Metric name: Kd (µM)
Field: numeric (µM). Do not append units.

FTNMEAQLIR    9.88

Bench note: what Kd did RPASAWTLY show?
0.0836

----------
- Test system: HLA-A*68:01
- Assay summary: IEDB peptide-MHC binding, purified MHC/competitive/radioactivity; filed as Kd, often an IC50 or EC50 that approximates it; bounds were set here for any values at or beyond the usual limits of such assays
- Condition label: source organism: Dengue virus 4 Philippines/H241/1956
Metric name: Kd (nM)
Field: numeric (nM). Do not append units.

VLAFITFLR    8.39

Bench note: what Kd did TIIGRRLQR show?
617

Bench note: what Kd did DSALTLHWFR show?
13.1

Bench note: what Kd did RVYADPMALK show?
16.1

----------
- Test system: HLA-B*08:03
- Assay summary: IEDB peptide-MHC binding, purified MHC/direct/fluorescence; filed as Kd, often an IC50 or EC50 that approximates it; bounds were set here for any values at or beyond the usual limits of such assays
- Condition label: source organism: Influenza A virus(A/swine/Shandong/fZC/2003(H9N2))
Metric name: Kd

Bench note: what Kd did SHEGEGIPL show?
≥ 20 µM

----------
- Test system: HLA-A*02:01
- Assay summary: IEDB peptide-MHC binding, purified MHC/competitive/radioactivity; filed as Kd, often an IC50 or EC50 that approximates it; bounds were set here for any values at or beyond the usual limits of such assays
- Condition label: source organism: Dengue virus 4 Philippines/H241/1956
In this section, each of the sequences is paired with its reported Kd.
Field: numeric (nM). Do not append units.

Guide cases for Kd, answers given:
KQLGQVMLLV    20.2
FLDLPLPWA    10.4

Now turn to the next sequence.
What value of Kd on HLA-A*02:01 does SMAMTCIAV have?
11.9

----------
- Test system: HLA-B*08:01
- Assay summary: IEDB peptide-MHC binding, purified MHC/competitive/fluorescence; filed as Kd, often an IC50 or EC50 that approximates it; bounds were set here for any values at or beyond the usual limits of such assays
- Condition label: source organism: Yersinia pestis Antiqua
Metric name: pKd
Interpret pKd as the negative base-10 log of the concentration measured in mol/L.

Bench note: what pKd did MPARLWLCL show?
6.42
